These data points were gathered from ChEMBL document CHEMBL2057101.

System: Escherichia coli
Assay: Antibacterial activity against Escherichia coli ATCC 25922 isolate 107
Assay type: functional
EXPERIMENTAL_READOUT: MIC

MOLECULE_SMILES | EXPERIMENTAL_READOUT | READING
CN(C)[C@@H]1C(O)=C(C(N)=O)C(=O)[C@@]2(O)C(O)=C3C(=O)c4c(O)c(NC(=O)c5ccccn5)cc(F)c4C[C@H]3C[C@@H]12 | MIC | > 32 µg/mL
CN(C)[C@@H]1C(O)=C(C(N)=O)C(=O)[C@@]2(O)C(O)=C3C(=O)c4c(O)c(NS(=O)(=O)c5cccs5)cc(F)c4C[C@H]3C[C@@H]12 | MIC | > 32 µg/mL
CN(C)c1cccc(C(=O)Nc2cc(F)c3c(c2O)C(=O)C2=C(O)[C@]4(O)C(=O)C(C(N)=O)=C(O)[C@@H](N(C)C)[C@@H]4C[C@@H]2C3)c1 | MIC | > 32 µg/mL
CN(C)[C@@H]1C(O)=C(C(N)=O)C(=O)[C@@]2(O)C(O)=C3C(=O)c4c(O)c(NC(=O)c5cccn5C)cc(F)c4C[C@H]3C[C@@H]12 | MIC | > 32 µg/mL
CN(C)[C@@H]1C(O)=C(C(N)=O)C(=O)[C@@]2(O)C(O)=C3C(=O)c4c(O)c(NC(=O)c5nccs5)cc(F)c4C[C@H]3C[C@@H]12 | MIC | > 32 µg/mL

Let us move to another entry and its MIC.
Entry CC(C)CCNc1cc(F)c2c(c1O)C(=O)C1=C(O)[C@]3(O)C(=O)C(C(N)=O)=C(O)[C@@H](N(C)C)[C@@H]3C[C@@H]1C2 ; MIC = > 32 µg/mL
